All values here come from PubChem BioAssay (NCI).

# System: SNB-75 CNS
# procedure_details: NCI tumour cell line growth inhibition, 48 h
Exercise: for every item that follows, state its recorded TGI.

COc1cccc(/C=C/c2nc3c(cnn3-c3ccccc3)c(=O)[nH]2)c1 | > 89.3 µM
O=C(c1ccco1)N(C(=S)N1CCN(c2ccccc2)CC1)C1CCCCC1 | > 100 µM
COc1cc2c(oc(=O)c3c4occc4cc(OC)c23)c2cccc(OCc3ccccc3)c12 | > 100 µM
O=C1N2Cc3c4ccc5c3CN3C(=O)N6Cc7c(ccc(c7CN1C6(c1ccccc1)C23c1ccccc1)OCCOCCOc1cc(Br)c(Br)cc1OCCOCCO4)OCCOCCOc1cc(Br)c(Br)cc1OCCOCCO5 (stereo unspecified) | > 100 µM
Cc1cc(S(=O)(=O)Nc2nnc3c4ccccc4cnn23)c(S)cc1Cl | > 100 µM

# input for lookup
Task: Identify the measured TGI of S=c1o[nH]c(-c2ccccc2)c1C=Nc1ccccc1 for SNB-75 CNS.
Result: > 100 µM

----------
# Test system: UACC-257 melanoma
# procedure_details: NCI tumour cell line growth inhibition, 48 h
*1 amine or outer side, *2 acyl side, *3 side chain or, on linkers, in order; H or OH if unused. Where a SMILES comes first, the peptide text is derived from it. [ ]: non-standard residue; d: D form. The star is where a group is joined. ξ: configuration not given here. NMeY = CN[C@@H](Cc1ccc(O)cc1)C(=O)O; Ethylenediamine = C(CN[*:2])N[*:1]; ξNMeL = CNC(CC(C)C)C(=O)O; Cbz = O=C(OCc1ccccc1)*; Lac = C[C@H](O)C(=O)O; ξA = CC(N)C(=O)O
measured_endpoint: TGI

In the examples that follow, each entry is paired with its recorded TGI.
Nc1c(OCC(=O)O)ccc2cc(S(=O)(=O)O)ccc12 | > 100 µM
C=C1c2ccccc2C(=O)c2c1c1c(C(=O)OC)c(OC(=O)OCc3ccc([N+](=O)[O-])cc3)ccc1n2Cc1ccccc1 | > 100 µM

Consider the record given below.
Task: I have this compound here, COc1ccc(C[C@@H](C(=O)NCCNC(=O)C(CC(C)C)N(C)C(=O)[C@@H]2CCCN2C(=O)[C@H](C)O)N(C)C(=O)[C@@H]2CCCN2C(=O)[C@H](CC(C)C)NC(=O)C(C)NC(=O)OCc2ccccc2)cc1 (stereo partly drawn) (Cbz-[ξA]LP[NMeY](Me)-{Ethylenediamine-ξNMeL-Pro-Lac}) , and I need its recorded TGI.
Result: > 100 µM

----------
# Test system: HT29 colon
# procedure_details: NCI tumour cell line growth inhibition, 48 h
For each of the compounds below, state its TGI.
One number for each entry, in µM.

Worked cases, answers included:
CC1=CC(C)(c2c[nH]c3ccccc23)CC(C)(C)c2c1[nH]c1ccccc21 (stereo not drawn) | 28.6
COC1CC(OC2CCC3(C)C(=CCC4C3C(OC(C)=O)C(OC(=O)CC(C)C)C3(C)C(C(C)=O)CCC43O)C2)OC(C)C1OC1CC(OC)C(OC2CC(OC)C(OC3OC(C)C(O)C(OC)C3O)C(C)O2)C(C)O1 (stereo not drawn) | 42.8
CC(=O)c1c(SCCN2CCOCC2)n(-c2ccccc2)c(=S)n(-c2ccccc2)c1=O | 52.9
C=C1CCCC(C)(C)[C@H]1C/C=C1\CCOC1=O | 28
N#Cc1ccc(/C=C(/C(=O)c2ccccc2)c2ccccc2)cc1 | 22.1

Okay, here is my list. What is TGI for each of these?
1. CO[C@@H]1CCN(c2nccc(Nc3cc4c(C(C)C)ccc(N5CC(CS(C)(=O)=O)[C@H]5C)c4cn3)n2)C[C@@H]1F (stereo partly drawn)
2. C[N+](C)(C)CC1CCC(C[N+](C)(C)C)C1=O (stereo not drawn)
3. COc1cc(Cl)cc(-c2nn(-c3cccc(NC(=O)Nc4cccc(C(F)(F)F)c4)c3)cc2-c2ccncc2)c1
4. Cc1cc(-c2nnc(/C=C/c3ccc4c(c3)OCO4)o2)n[nH]1
5. S=C=Nc1ccc(CSc2nc3ccccc3[nH]2)cc1
6. O=C1Nc2cc(-c3cccc(O)c3)ccc2/C1=C/c1ccc[nH]1

Result:
[12.1, 3.4, 6.24, 43.4, 32.6, 30.6]

----------
For each record, write down the corresponding GI50.
# Test system: SNB-75 CNS
# procedure_details: NCI tumour cell line growth inhibition, 48 h

Cc1cc(-c2nnc(/C=C/c3ccc4c(c3)OCO4)o2)n[nH]1 | 9.02 µM
CNCC/C=C1\c2cc3c(cc2-c2c1c1cc(OC)c(OC)cc1c(=O)n2C)OCO3 | 3.26 µM

# batch: return GI50 for each of the 2 compounds below
1. CO[C@@H]1CCN(c2nccc(Nc3cc4c(C(C)C)ccc(N5CC(CS(C)(=O)=O)[C@H]5C)c4cn3)n2)C[C@@H]1F (some centres undefined)
2. C[C@]12CC[C@@H]3c4ccc(O)cc4CC[C@H]3[C@@H]1CC[C@@H]2NS(=O)(=O)c1ccc(Br)cc1

Result:
5.85 µM
2.1 µM

----------
# Tested on: KM12 colon
# procedure_details: NCI tumour cell line growth inhibition, 48 h
measured_endpoint: TGI

Respectfully, I request TGI for each entry included below.
1. CCOC(=O)c1nc2ccccc2n(CC)c1=O
2. CN(C)CCCNc1ccc2nnn3c4ccc(OC(=O)c5ccccc5)cc4c(=O)c1c23
3. COc1cc(-n2cc(-c3ccccc3)[nH]c2=O)cc(OC)c1OC
4. CN(C)C(=O)OCc1nc2c(N3CCOCC3)nc(-c3ccccc3)nc2n1C
5. C[C@@H](CC(=O)O)OC1OC(COC(=O)C(C)(C)C)C(OC(=O)C(C)(C)C)C(OC(=O)C(C)(C)C)C1OC(=O)C(C)(C)C (stereo partly specified)

Result:
["> 100 µM", "23.3 µM", "> 100 µM", "3.32 µM", "> 100 µM"]

----------
Give TGI for every item shown.
# System: DLD-1 colon
# procedure_details: NCI tumour cell line growth inhibition, 48 h

CN(C)CCC(/C=C/c1ccccc1)=N\Nc1ccc(Cl)c(Cl)c1 | 11 µM
Cc1cc(N(CCC#N)CCC#N)ccc1N=Nc1cc(Cl)ccc1Cl | 26.1 µM
N#Cc1ccc(/C=C(/C(=O)c2ccccc2)c2ccccc2)cc1 | 13 µM
CC(C)c1ccc(C2NC(=S)NC3=C2c2ccccc2C3=O)cc1 (stereo not given) | > 100 µM
Nc1ccc(-c2cc(C(=O)Nc3nccs3)[nH]c(=S)n2)cc1 | > 100 µM

Fill in TGI for each of the 5 compounds listed.
1. c1ccc(CN2CCc3[nH]c4ccccc4c3C2)cc1
2. COc1cccc2c1C1(O)C2CCCCCCCCCC12OCCCO2 (stereo not given)
3. CCOC(=O)C1C=C2O[C@@H]3OC4(CCCCC4)O[C@@H]3C2C2C(=O)CCC(=O)[C@@]12C(=O)OC (stereo not given in full)
4. O=[P+](O)c1ccccn1
5. O=c1[nH]c2cc([N+](=O)[O-])ccc2nc1/C(=N/Nc1ccccc1)C(O)c1ccco1 (stereo not given)

Result:
1: > 100 µM; 2: > 100 µM; 3: > 100 µM; 4: > 100 µM; 5: > 100 µM

----------
# Tested on: HL-60(TB) leukemia
# procedure_details: NCI tumour cell line growth inhibition, 48 h
Kindly state TGI for each of the entries shown.

NC(=O)CN1CC(C2=C(O)CN(CC(N)=O)C2=O)=CC1=O | > 100 µM
CNCCCNC(=S)Cn1cc(C)c(=O)[nH]c1=O | > 54 µM

Turning now to a further record.
Task: Form: Entry = COc1ccc(/C=C2\C[C@H]3[C@@H]4CC=C5C[C@@H](OC(C)=O)CC[C@]5(C)[C@H]4CC[C@]3(C)\C2=N\O)cc1OC | System = HL-60(TB) leukemia | TGI = ____
Result: > 100 µM

----------
# Test system: HOP-92 NSCLC
# procedure_details: NCI tumour cell line growth inhibition, 48 h
For each record, write down the corresponding TGI.

Guide cases for TGI, answers given:
CC1=C(C(=O)NCc2ccccc2)C(c2ccc(Cl)c(Cl)c2)C(C(=O)NCc2ccccc2)=C(C)N1 | > 100 µM
CCCN(CCC)C(=S)N/N=C(/C)c1ccccc1O | > 76.8 µM
CCOC(=O)Nc1nc2ccccc2[nH]1 | > 100 µM
C=C1[C@H]2O[C@H]2[C@@H](OC(C)=O)[C@@]2(C)[C@@H](OC(C)=O)C[C@@H](OC(=O)CCC)[C@@](C)(O)[C@@H]2[C@@H](OC(C)=O)[C@]2(O)[C@@H](C)C(=O)O[C@H]2[C@H]1Cl | > 100 µM
COc1ccc(C(=O)O[C@H]2CC[C@@]3(C)[C@@H]4CC[C@H]5[C@]6(O)C[C@H](O)[C@@]7(O)[C@@H](CN8C[C@@H](C)CC[C@H]8[C@@]7(C)O)[C@]6(O)C[C@@]53OC24O)cc1OC | > 100 µM
[N-]=[N+]=NCCCn1c2c(c3ccc([N+](=O)[O-])cc3c1=O)C(=O)c1cc3c(cc1-2)OCO3 | > 33.5 µM

I have 4 compounds here; please give me TGI for each one.
1. O=C(CSCC(=O)N/N=C/c1ccccc1O)N/N=C\c1ccccc1O
2. C/C(=N\NC(=O)C[N+](C)(C)C)c1sc(-c2cccnc2)nc1C
3. Cc1ccc(/C=C/C(=N/NC(=O)N/N=C(/C=C/c2ccc(C)cc2)C(C)C)C(C)C)cc1
4. NC(=S)N=Nc1c(O)[nH]c2c(Cl)cc(Cl)cc12

Result:
["> 100 µM", "> 100 µM", "> 10 µM", "> 100 µM"]
